test-system: SARS-CoV-2 RdRp (Severe acute respiratory syndrome coronavirus 2, UniProt P0DTD1)
assay-summary: cell-based
reported-endpoint: EC50 (µM)

INSERT INTO assay_data (smiles_representation, reading_unit, reported_result) VALUES
  ('O=C(O[C@@H]1O[C@@H]2COC(=O)c3cc(O)c(O)c(O)c3-c3c(cc(O)c(O)c3O)C(=O)O[C@H]([C@H]1O)[C@@H]2O)c1cc(O)c(O)c(O)c1', 'µM', 3.33);
